Data origin, for the record: ChEMBL document CHEMBL1137011

# ASSAYED_TARGET: Beta-1 adrenergic receptor (Homo sapiens)
# Sequence (P08588 whole entry): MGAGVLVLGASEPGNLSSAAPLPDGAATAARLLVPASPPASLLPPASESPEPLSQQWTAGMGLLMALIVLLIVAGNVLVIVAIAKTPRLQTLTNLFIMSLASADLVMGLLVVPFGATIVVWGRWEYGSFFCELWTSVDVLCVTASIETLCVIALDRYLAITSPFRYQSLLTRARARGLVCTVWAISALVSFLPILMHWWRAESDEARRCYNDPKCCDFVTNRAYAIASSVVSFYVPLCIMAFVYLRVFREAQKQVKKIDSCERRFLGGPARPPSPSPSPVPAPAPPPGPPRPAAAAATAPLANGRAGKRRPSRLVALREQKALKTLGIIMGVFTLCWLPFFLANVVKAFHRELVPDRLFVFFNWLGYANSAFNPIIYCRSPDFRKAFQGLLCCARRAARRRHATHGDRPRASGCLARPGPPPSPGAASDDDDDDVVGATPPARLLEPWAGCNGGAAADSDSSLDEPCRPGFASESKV
# PROTOCOL_DESCRIPTION: Binding affinity to beta-1 adrenoceptor
# CONDITION_DESCRIPTION: read-out: EC50
OBSERVED_PROPERTY: EC50 (nM)
Expressed in nM, but write only the number.

// EC50 lookup, key: COc1ccc(CC(C)(C)NC[C@H](O)COc2cccc3[nH]c(=O)[nH]c23)cc1 3

----------
# ASSAYED_TARGET: Extracellular calcium-sensing receptor (Homo sapiens, UniProt P41180)
# Sequence (P41180 whole entry): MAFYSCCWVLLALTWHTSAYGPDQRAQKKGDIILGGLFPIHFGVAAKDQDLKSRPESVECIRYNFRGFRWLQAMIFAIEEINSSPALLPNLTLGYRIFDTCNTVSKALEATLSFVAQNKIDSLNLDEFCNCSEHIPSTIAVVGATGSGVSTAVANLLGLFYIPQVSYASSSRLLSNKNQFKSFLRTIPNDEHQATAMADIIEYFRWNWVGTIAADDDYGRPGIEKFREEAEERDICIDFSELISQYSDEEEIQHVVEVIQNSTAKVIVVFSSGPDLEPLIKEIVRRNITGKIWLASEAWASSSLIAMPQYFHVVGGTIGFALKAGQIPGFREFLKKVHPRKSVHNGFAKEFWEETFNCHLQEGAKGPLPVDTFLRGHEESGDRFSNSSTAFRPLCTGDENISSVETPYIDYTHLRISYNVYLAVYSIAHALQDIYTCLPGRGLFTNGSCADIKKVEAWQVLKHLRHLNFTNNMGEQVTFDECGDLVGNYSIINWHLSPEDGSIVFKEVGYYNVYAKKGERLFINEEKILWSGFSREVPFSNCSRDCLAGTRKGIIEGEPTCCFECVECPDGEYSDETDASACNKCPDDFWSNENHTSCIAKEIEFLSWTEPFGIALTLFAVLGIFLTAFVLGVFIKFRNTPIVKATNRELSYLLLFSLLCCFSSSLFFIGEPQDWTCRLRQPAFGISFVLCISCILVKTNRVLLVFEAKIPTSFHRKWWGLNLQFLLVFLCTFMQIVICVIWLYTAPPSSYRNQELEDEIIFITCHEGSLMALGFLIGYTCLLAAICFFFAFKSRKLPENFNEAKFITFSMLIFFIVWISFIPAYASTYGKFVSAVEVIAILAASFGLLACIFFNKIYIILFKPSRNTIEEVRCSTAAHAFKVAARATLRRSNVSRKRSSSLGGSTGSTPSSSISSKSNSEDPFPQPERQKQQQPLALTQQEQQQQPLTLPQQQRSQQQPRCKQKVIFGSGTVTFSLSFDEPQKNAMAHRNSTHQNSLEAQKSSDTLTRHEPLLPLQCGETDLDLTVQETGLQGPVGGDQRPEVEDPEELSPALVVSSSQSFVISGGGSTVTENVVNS
# PROTOCOL_DESCRIPTION: Binding affinity to human parathyroid calcium receptor 1 expressed in HEK293 4.0-7 cells by radioligand binding assay
OBSERVED_PROPERTY: IC50 (µM)
Expressed in µM, but write only the number.

>>> observed_result("COc1ccc(CC(C)(C)NCC(O)COc2ccccc2OC)cc1 (racemic)")
3.5

// IC50 lookup, key: COc1ccc(CC(C)(C)NCC(O)COc2ccccc2C#N)cc1 (racemic) 0.14

----------
# PROTOCOL_DESCRIPTION: Volume of distribution in rat
# Format: ADME, organism-based
# CONDITION_DESCRIPTION: in vivo
OBSERVED_PROPERTY: Vd
// return the numeric value with its unit appended

// Vd lookup, key: CC(C)(Cc1ccc2ccccc2c1)NC[C@@H](O)COc1cccc(Cl)c1C#N.Cl 11 L/kg

----------
What follows is a collection of pIC50 values obtained with Beta-2 adrenergic receptor (Homo sapiens, UniProt P07550).
Sequence (P07550 whole entry): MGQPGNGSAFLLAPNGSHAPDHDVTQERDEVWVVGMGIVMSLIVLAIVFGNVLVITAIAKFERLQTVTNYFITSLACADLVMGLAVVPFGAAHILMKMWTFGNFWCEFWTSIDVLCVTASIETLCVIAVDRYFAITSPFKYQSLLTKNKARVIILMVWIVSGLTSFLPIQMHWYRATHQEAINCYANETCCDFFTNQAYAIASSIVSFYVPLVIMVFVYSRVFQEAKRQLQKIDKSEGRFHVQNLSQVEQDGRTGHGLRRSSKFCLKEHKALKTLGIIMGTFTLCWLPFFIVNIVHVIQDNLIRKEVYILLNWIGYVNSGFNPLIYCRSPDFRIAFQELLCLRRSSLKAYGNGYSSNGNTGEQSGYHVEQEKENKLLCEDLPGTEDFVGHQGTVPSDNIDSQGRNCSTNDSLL
Schema: pIC50 number; meaning minus log10 of the concentration expressed in molar units.

Sample answers from the record:
>>> observed_result("COc1ccc(CC(C)(C)NCC(O)COc2ccccc2C#N)cc1 (racemic)")
7.68
>>> observed_result("COc1ccc(CC(C)(C)NCC(O)COc2cccc(Cl)c2C#N)cc1 (racemic)")
7.64
>>> observed_result("CC(C)(Cc1ccc2ccccc2c1)NC[C@@H](O)COc1cccc(Cl)c1C#N.Cl")
5.37

We next turn to a different molecule, shown below.
Identify the measured pIC50 of COc1ccc(CC(C)(C)NC[C@H](O)COc2cccc3[nH]c(=O)[nH]c23)cc1 for Beta-2 adrenergic receptor (Homo sapiens, UniProt P07550). 8.89

----------
# ASSAYED_TARGET: Beta-3 adrenergic receptor (Homo sapiens)
# Sequence (P13945 whole entry): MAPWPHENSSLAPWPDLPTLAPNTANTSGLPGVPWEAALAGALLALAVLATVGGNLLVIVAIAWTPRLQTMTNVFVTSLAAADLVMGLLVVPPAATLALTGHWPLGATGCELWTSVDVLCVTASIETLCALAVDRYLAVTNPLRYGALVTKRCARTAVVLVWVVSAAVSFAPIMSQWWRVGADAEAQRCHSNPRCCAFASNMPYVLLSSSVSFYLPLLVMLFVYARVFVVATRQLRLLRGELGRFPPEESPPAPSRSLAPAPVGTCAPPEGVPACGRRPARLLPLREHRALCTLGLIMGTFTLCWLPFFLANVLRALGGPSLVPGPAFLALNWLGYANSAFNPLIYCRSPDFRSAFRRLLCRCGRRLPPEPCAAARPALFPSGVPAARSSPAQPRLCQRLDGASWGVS
# PROTOCOL_DESCRIPTION: Binding affinity to beta3 adrenoceptor
# CONDITION_DESCRIPTION: read-out: EC50
OBSERVED_PROPERTY: pEC50
Schema: pEC50 number; meaning minus log10 of the concentration expressed in molar units.

Sample answers from the record:
>>> observed_result("COc1ccc(CC(C)(C)NC[C@H](O)COc2cccc(Cl)c2Cl)cc1")
6.70
>>> observed_result("COc1ccc(CC(C)(C)NCC(O)COc2cccc(Cl)c2Cl)cc1 (racemic)")
6.70
>>> observed_result("COc1ccc(CC(C)(C)NCC(O)COc2ccccc2C#N)cc1 (racemic)")
7.70

We next turn to a different molecule, shown below.
// pEC50 lookup, key: COc1ccc(CC(C)(C)NC[C@H](O)COc2cccc3[nH]c(=O)[nH]c23)cc1 8.15

----------
What follows is a collection of pIC50 values obtained with Sodium-dependent serotonin transporter (Homo sapiens, UniProt P31645).
Sequence (P31645 whole entry): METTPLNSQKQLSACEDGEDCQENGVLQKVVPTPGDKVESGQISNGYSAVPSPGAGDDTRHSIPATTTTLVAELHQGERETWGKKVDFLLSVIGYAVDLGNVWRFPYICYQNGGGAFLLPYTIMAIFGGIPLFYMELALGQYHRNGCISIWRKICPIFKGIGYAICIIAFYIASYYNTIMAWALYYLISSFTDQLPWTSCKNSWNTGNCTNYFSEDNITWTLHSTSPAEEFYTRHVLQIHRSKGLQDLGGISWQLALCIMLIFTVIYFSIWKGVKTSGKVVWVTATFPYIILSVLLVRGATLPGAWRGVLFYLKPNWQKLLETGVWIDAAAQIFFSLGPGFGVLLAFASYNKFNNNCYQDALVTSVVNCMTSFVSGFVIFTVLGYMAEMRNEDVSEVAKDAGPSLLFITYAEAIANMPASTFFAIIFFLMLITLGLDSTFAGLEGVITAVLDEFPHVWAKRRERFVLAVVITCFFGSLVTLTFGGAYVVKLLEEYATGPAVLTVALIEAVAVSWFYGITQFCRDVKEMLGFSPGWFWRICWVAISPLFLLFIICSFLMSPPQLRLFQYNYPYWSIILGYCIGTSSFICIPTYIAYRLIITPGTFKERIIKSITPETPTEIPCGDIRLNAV
Schema: pIC50 number; meaning minus log10 of the concentration expressed in molar units.

Sample answers from the record:
>>> observed_result("COc1ccc(CC(C)(C)NCC(O)COc2ccccc2C#N)cc1 (racemic)")
7.68
>>> observed_result("COc1ccc(CC(C)(C)NC[C@H](O)COc2cccc3[nH]c(=O)[nH]c23)cc1")
7.21

We next turn to a different compound, shown below.
Identify the measured pIC50 of CC(C)(Cc1ccc2ccccc2c1)NC[C@@H](O)COc1cccc(Cl)c1C#N.Cl for Sodium-dependent serotonin transporter (Homo sapiens, UniProt P31645). 8.70
